# Test Target: hemagglutinin (HA) of influenza virus H1N1 A/New Caledonia/20/99 (influenza A virus)
# Experiment: cell-based or functional assay

Binder	average neutralization titer / nM
MD2301 (bispecific antibody) EVQLVESGGGLVQPGGSLRLSCAATGFTLENKAIGWFRQTPGSEREGVLCISKSGSWTYYTDSMRGRFTISRDNAENTVYLQMDSLKPEDTAVYYCATTTAGGGLCWDGTTFSRLASSWGQGTQVTVSSGGGGSGGGGSEVQLVESGGGLVQPGGSLRLSCAVSISIFDIYAMDWYRQAPGKQRDLVATSFRDGSTNYADSVKGRFTISRDNAKNTLYLQMNSLKPEDTAVYLCHVSLYRDPLGVAGGMGVYWGKGALVTVSSGGGGSGGGGSEVQLVESGGGLVQAGGSLKLSCAASGRTYAMGWFRQAPGKEREFVAHINALGTRTYYSDSVKGRFTISRDNAKNTEYLEMNNLKPEDTAVYYCTAQGQWRAAPVAVAAEYEFWGQGTQVTVSS	14.7

Hey, just so you know, these numbers are from patent US20190359693A1.
